Please go through the items and note down their inhibition zone (IZ).
tested on: Enterobacter cloacae; test: Antimicrobial activity against Enterobacter cloacae at 1 umol/spot after 18 hrs by TLC-bioautographic method; type: functional

Input O=C(/C=C/c1ccco1)c1ccc(Nc2nc(Nc3ccccc3)nc(Nc3ccccc3)n2)cc1 . Output inhibition zone (IZ): 0.08 millimeter

Input O=C(/C=C/c1cccs1)c1ccc(Nc2nc(Nc3ccccc3)nc(Nc3ccccc3)n2)cc1 . Output inhibition zone (IZ): 0.08 millimeter

Input CC(=O)N1N=C(c2ccc(Nc3nc(Nc4ccccc4)nc(Nc4ccccc4)n3)cc2)CC1c1ccco1 (stereo not drawn) . Output inhibition zone (IZ): 0.09 millimeter

Input Nc1nc(-c2ccc(Nc3nc(Nc4ccccc4)nc(Nc4ccccc4)n3)cc2)cc(-c2cccs2)n1 . Output inhibition zone (IZ): 0.08 millimeter

Input O=C(/C=C/c1ccc(Cl)cc1)c1ccc(Nc2nc(Nc3ccccc3)nc(Nc3ccccc3)n2)cc1 . Output inhibition zone (IZ): 0.08 millimeter

Input COc1ccccc1-c1cc(-c2ccc(Nc3nc(Nc4ccccc4)nc(Nc4ccccc4)n3)cc2)nc(N)c1C#N . Output inhibition zone (IZ): 0.08 millimeter

Input N#Cc1c(-c2ccco2)cc(-c2ccc(Nc3nc(Nc4ccccc4)nc(Nc4ccccc4)n3)cc2)nc1N . Output inhibition zone (IZ): 0.09 millimeter
